FYI, the data here is from the DeepSol protein solubility set.

Test: soluble on expression in E. coli; label from the status in PepcDB or PDB records
measurement kind: soluble on expression in E. coli

Given "MSLTNQVTYLFFHGMKQISEHLFTTEEQAIIARSKAEGSYMKAPNGQATNLNKKQWAQVRTRAFREWFGDWENNPDEASKVRDANGEPLVVYHGTPISRDQAADRSKFRIADDWEIQTINAPFHTFRGGAYNGLIFTSLTEEKARSIGETRSMSIPDSEDGREQWTTDSYVYDLFVNARQPFDVKNPNAVKDILDALEGQLTAYDFYLGMEVPVSRKEAEKILEGGNSWRVVETPSMQEIIRSRGYDAIHALDEGVQYMAVFAPNQLKASGKYLYSERNTGVFSPGNNDIRFREVHHGVPASFTGYRSMKTETVRNDNIPAVLAALREKLEDTEQEWQDRILDYIAENYPTQTTVSAQTRSPEGLKEREAMKEGHHHHHH" , state its recorded soluble on expression in E. coli. soluble

Given "MGSDKIHHHHHHMQVRRFGRTNWNVSEIGYGMWGASGWKGSDDSQSEQSLDLAVSKGVNFFDTAWGYGEGHSEQLLGKLVKRHQSKKIYVATKIPPMNFKWPSKKSYTIGECFPVSHIKEYTETSLKNLGVEKIDLMQFHVWEDAWATDESWQRAVEDLQKEGKVDAFGISVNRWEPENCLETLKTGLIDSVQVIYNIFDQAPEDALLPLCKKLDIAVIARVPFDEGTLTGTITKDTTFEEGDWRASYFVPENLISSAEHADRLRPILPSGMTMAEMALRFILMNDDIATTIPGMRKERNVLANTGVSDGKKLSLDLYNELKKHRWDREPTSWSQ" , state its recorded soluble on expression in E. coli. not soluble

Given "MYTLSAGIWEKFFKKKDYYVVIVGLDNAGKTTFLEQTKSHFVKDYGVLNPSKITATVGLNTGNVELNNTCLHFWDLGGQESLRELWATYYDDANAMIFVVDATRSDLFPIVASQFKEVMANEIVQNIPVLVAVNKSEMEGAAAAAEVRMLLEDDNHRSDLAVLPVSALEGTNIERCVHWIVRSLASQPLYL" , state its recorded soluble on expression in E. coli. not soluble

Given "MSLLHERINFNPKVDVEVKLPERLEEGKITEVNVVVRNRGSKGILEVKIEGEDLIGEAKRVKLDSGEKLVKLSVKPLNKGDKVLKVKALFEDELNLYYSEVYEAEFSIQVLPSVDSIREAAREEVSIRMREALKKGKIGVESTELYGLREYLPGDDVRRIDWKATTRLRKLIVKEFMRESEGDVYIVLDATREMRKRIRRSKIDYASSLVLYIATILIRSNKRVGLILFSEDEFKVVKPEKGSEQLERIRETLRFKPLKGLTSFKGEVGRLKTWDFLRKLFPRKRRGVEEALLSIRNPSYVILITDLMSNTPRLYSAVSMVKKKHKVIILSPNPVLFYSGELDEETLRFLYEKYRERERILRKFNSLVPTVDLGPSDYGREVLEVLEGEGHHHHHH" , state its recorded soluble on expression in E. coli. not soluble

Given "MDMHSGTFNPQDFAWQGLTLTPAAAIHIRELVAKQPGMVGVRLGVKQTGCAGFGYVLDSVSEPDKDDLLFEHDGAKLFVPLQAMPFIDGTEVDFVREGLNQIFKFHNPKAQNECGCGESFGV" , state its recorded soluble on expression in E. coli. not soluble

Others:
Given "MGSDKIHHHHHHMQLEVMEHYGIIKYFRDADYFETEHQRRIFNQLKKVIPEGQLIALSGVVGSGKTTTLSRLQDLLAKEKKVIVAKSLSVEKTKTNLGTLITALFYDVSGDKDYRVPKLGEKRERELRDLIQDVKKPVVLLVDEAHDLHHRTLTGLKRLMEVIRDGGGKLSILLAGHPKLKNDLKGPTMEEVGYRTIVVSLDAMQGNLREYVYWLLDNCTDDKTKPTDVIEEQAIDYLVERLTTPLQIEQHLSLALEEGFNVGVKPITVDVLDLTLSRRINDIEPRLIRHGYSEKVLVDQFHYKPAELRKFFKGELDANRVKEITQDLREAGLPI" , state its recorded soluble on expression in E. coli. not soluble

Given "MGSDKIHHHHHHMPAFNQHDLSHFVGKHLIYTYDNGWNYELYVKNANTIDYRIHSGIVGNRWVKDQQVYIVQVAREVYKISWTEPTGTDVSLIANIADKVFHGTIFFPRWVINNPEKTVCFQNEHIAEMEAYRDAGPAYPTEVIDEFATITFIRDCGENNNDVINCPASELPADFPACLKK" , state its recorded soluble on expression in E. coli. not soluble

Given "GHMGLEPYEISTLFEQRQAMLQSIKEGVVAVDDRGEVTLINDAAQELLNYRKSQDDEKLSTLSHSWSQVVDVSEVLRDGTPRRDEEITIKDRLLLINTVPVRSNGVIIGAISTFRDKT" , state its recorded soluble on expression in E. coli. soluble
